Molecular target: glucan synthase (Saccharomyces cerevisiae)
Construct: glucan synthase sources (2 μL permeabilized PM503 cells, or 3 μL membrane preparations from either PM503, BWP17, or ND158); endogenous in cells; host or cells: S. cerevisiae strain PM503, permeabilized cells or 100,000 g membrane fraction
Assay: β(1,3) glucan synthase assay, S. cerevisiae PM503 permeabilized cells or membrane preparation (IC50)
Type: biochemical
Measured IC50 accompanies every entry in the list below.
measuredMetric: IC50

compound	measuredMetric	result
CC(C)S(=O)(=O)N1CCN(c2cnn(-c3cccc(F)c3)c(=O)c2OCCCCCCC(C)(C)F)CC1 [801Z]	IC50	18.5 nM
N#Cc1cccc(-c2c(N3CCN(S(=O)(=O)Cc4ccccc4)CC3)cnn(-c3cc(F)cc(F)c3)c2=O)c1 [82Z]	IC50	87.7 nM
O=c1c(OCC2(CF)CC2)c(N2CCN(S(=O)(=O)Cc3ccccc3)CC2)cnn1-c1cccc(Cl)c1 [1122Z]	IC50	54.8 nM
CC1(COc2c(N3CCN(S(=O)(=O)Cc4ccccc4)CC3)cnn(-c3cccc(Cl)c3)c2=O)CC1 [1035Z]	IC50	75.6 nM
CC1CC1COc1c(N2CCN(S(=O)(=O)Cc3ccccc3)CC2)cnn(-c2cc(F)cc(F)c2)c1=O (centres unmarked) [1529Z-182]	IC50	1.88 nM
COc1cccc(CS(=O)(=O)N2CCN(c3cnn(-c4cccc(Cl)c4)c(=O)c3OCC3(C)CC3)CC2)c1N [Compound 1574ZI]	IC50	87.1 nM
O=c1c(OC2CCCC2)c(N2CCN(S(=O)(=O)Cc3cc(Cl)cc(Cl)c3)CC2)cnn1-c1cccc(Cl)c1 [553Z]	IC50	184 nM
O=c1c(-c2ccc(C3CCCCC3)cc2)c(N2CCN(S(=O)(=O)Cc3ccccc3)CC2)cnn1-c1cc(F)cc(F)c1 [96Z]	IC50	364 nM
Cc1nc2ccc(CS(=O)(=O)N3CCN(c4cnn(-c5cc(F)cc(F)c5)c(=O)c4OCC4(C)CC4)CC3)cc2o1 [1898Z]	IC50	85.4 nM
COc1ccc(CNS(=O)(=O)N2CCN(c3cnn(-c4cc(F)cc(F)c4)c(=O)c3OCC3(C)CC3)CC2)cc1 [1633Z]	IC50	139 nM
CC1(COc2c(N3CCN(S(=O)(=O)Cc4cccc(N)c4)CC3)cnn(-c3cc(F)cc(F)c3)c2=O)CC1 [1529Z-40]	IC50	55 nM
CC1(COc2c(N3CCN(S(=O)(=O)Cc4cccc(Cl)c4N)CC3)cnn(-c3cc(F)cc(F)c3)c2=O)CC1 [Compound 1574Zq]	IC50	69 nM
CC1(COc2c(N3CCN(S(=O)(=O)Cc4ccc(C#N)cc4)CC3)cnn(-c3cccc(Cl)c3)c2=O)CC1 [1529Z-56]	IC50	307 nM
CCCCCCCCCC(=O)N1CCN(c2cnn(-c3ccccc3)c(=O)c2OCCCCCCC)CC1 [232Z]	IC50	3810 nM

----------
Measured pIC50 accompanies every entry in the list below.
Target: glucan synthase (Saccharomyces cerevisiae, UniProt P38631)
Construct: glucan synthase sources (2 μL permeabilized PM503 cells, or 3 μL membrane preparations from either PM503, BWP17, or ND158); endogenous in cells
Sequence (P06780 1-206): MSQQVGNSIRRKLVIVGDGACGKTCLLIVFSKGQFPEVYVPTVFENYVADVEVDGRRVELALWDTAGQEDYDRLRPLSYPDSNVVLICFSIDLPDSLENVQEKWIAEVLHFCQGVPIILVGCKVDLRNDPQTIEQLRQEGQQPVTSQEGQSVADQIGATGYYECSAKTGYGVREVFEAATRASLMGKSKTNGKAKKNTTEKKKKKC
Sequence (P38631 whole entry): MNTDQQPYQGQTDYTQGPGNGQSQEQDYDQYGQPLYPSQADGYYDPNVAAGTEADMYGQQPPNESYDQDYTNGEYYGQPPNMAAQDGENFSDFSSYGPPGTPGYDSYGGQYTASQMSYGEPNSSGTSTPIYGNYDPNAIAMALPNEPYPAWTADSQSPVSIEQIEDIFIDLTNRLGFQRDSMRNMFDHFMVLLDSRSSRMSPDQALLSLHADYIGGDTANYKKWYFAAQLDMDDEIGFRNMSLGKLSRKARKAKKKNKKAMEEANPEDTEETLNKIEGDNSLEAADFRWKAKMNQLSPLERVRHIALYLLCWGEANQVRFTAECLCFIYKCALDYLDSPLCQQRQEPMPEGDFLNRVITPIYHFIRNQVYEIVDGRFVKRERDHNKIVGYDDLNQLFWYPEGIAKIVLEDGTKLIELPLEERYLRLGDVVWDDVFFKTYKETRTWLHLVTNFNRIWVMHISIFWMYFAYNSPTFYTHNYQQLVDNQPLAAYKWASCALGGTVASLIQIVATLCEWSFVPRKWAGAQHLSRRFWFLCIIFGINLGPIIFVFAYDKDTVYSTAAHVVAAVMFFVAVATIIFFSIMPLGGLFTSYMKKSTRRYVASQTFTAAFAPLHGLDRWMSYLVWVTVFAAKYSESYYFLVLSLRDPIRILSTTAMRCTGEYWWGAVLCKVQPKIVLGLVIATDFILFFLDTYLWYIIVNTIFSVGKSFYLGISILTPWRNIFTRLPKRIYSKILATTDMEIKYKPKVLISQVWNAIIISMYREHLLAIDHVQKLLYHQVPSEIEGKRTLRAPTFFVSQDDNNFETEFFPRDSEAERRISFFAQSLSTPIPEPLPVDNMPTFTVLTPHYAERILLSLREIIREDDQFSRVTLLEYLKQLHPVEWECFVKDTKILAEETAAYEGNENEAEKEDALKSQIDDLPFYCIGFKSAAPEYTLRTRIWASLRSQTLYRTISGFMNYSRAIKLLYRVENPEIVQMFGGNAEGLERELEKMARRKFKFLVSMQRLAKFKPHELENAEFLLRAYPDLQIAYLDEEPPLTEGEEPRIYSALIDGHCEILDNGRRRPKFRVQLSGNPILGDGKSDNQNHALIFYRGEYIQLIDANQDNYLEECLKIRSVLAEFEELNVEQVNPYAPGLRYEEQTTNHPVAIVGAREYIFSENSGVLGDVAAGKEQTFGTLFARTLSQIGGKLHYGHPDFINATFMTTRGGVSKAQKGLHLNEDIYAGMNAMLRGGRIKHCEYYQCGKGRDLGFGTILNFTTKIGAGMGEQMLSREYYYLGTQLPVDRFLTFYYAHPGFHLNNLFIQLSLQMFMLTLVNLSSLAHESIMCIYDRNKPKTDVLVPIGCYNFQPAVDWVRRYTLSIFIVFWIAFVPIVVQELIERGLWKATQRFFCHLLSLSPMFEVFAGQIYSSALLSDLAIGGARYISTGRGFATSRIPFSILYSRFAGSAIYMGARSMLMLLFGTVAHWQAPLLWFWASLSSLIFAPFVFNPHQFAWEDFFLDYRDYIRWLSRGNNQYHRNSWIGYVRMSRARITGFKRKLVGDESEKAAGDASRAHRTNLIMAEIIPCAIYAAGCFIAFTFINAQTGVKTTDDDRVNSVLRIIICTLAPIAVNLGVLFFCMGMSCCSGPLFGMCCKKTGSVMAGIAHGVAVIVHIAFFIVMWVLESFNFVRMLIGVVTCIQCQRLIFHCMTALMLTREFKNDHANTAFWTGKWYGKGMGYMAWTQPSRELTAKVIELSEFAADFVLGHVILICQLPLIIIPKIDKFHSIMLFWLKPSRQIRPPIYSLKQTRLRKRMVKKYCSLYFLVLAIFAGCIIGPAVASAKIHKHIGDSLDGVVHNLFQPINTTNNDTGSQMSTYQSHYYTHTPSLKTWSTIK
Experiment: β(1,3) glucan synthase assay, S. cerevisiae PM503 permeabilized cells or membrane preparation (IC50)
pIC50: −log10 of the molar value.

compound	pIC50
CCC1(COc2c(N3CCN(S(=O)(=O)Cc4ccc(N)cc4)CC3)cnn(-c3cc(F)cc(F)c3)c2=O)CC1	7.05
CC1(COc2c(N3CCN(S(=O)(=O)Cc4cccc(N)c4)CC3)cnn(-c3cccc(Cl)c3)c2=O)CC1 [755Z]	7.04
Nc1ccc(CS(=O)(=O)N2CCN(c3cnn(-c4cccc(Cl)c4)c(=O)c3OCc3ccccc3)CC2)cc1 [1529Z-19]	7.15
